- Test system: SW-620 colon
- TEST NAME: NCI-60 one-dose screen, 48 h (100 = growth as untreated, 0 = no growth, -100 = all killed)
- CONDITION: 10 µM unless noted
This is part of a sample that, as a whole, favours compounds with a hit. Of some 83,000 tested, about 20% had one in any assay.
# binarize growth: threshold 80% inclusive, high side y, low side n

{"columns": ["COMPOUND", "QUALITATIVE LABEL"],
 "data": [
  ["COC[C@@]1(C)CC[C@]2(C)CC[C@]3(C)C(=CC[C@@H]4[C@@]5(C)CCCNC(C)(C)[C@@H]5CC[C@]43C)C2C1 (stereo not given in full)", "n"],
  ["CN(C)C(=O)c1ccccc1-n1cnc2ccccc2c1=O", "y"],
  ["COc1ccc(Cn2cc3c(c2-c2cc(OC)c(OC)c(OC)c2)CCCc2cnoc2-3)cc1N", "n"],
  ["Cn1cc(-c2nn3c(=O)cc(-c4ccccc4)nc3s2)c2cc(F)ccc21", "n"],
  ["CN(C)c1ncc(/C=C2\\SC(=S)N(Cc3ccccc3Cl)C2=O)s1", "y"]
]}

###

- Test system: UO-31 renal
- TEST NAME: NCI-60 one-dose screen, 48 h (100 = growth as untreated, 0 = no growth, -100 = all killed)
- CONDITION: 10 µM unless noted
This is part of a sample that, as a whole, favours compounds with a hit. Of some 83,000 tested, about 20% had one in any assay. Activity calls are given as the source filed them. Rule for the calls: active = growth percent below 10; inactive = the rest.

{"columns": ["MOLECULE", "growth"],
 "data": [
  ["CC(=O)NC(C)(C)C(=O)N1CCC[C@H]1C(=O)NC(C)(C)C(=O)N[C@@H](C)C(=O)NC(C)(C)C(=O)NC(C)(C)C(=O)N[C@@H](CCC(N)=O)C(=O)NC(C)(C)C(=O)N[C@H](C(=O)NC(C)(C)C(=O)NCC(=O)N[C@@H](CC(C)C)C(=O)NC(C)(C)C(=O)N1CCC[C@H]1C(=O)N[C@H](C(=O)NC(C)(C)C(=O)NC(C)(C)C(=O)N[C@@H](CCC(N)=O)C(=O)N[C@@H](CCC(N)=O)C(=O)N[C@H](CO)Cc1ccccc1)C(C)C)C(C)C", "97.7% [4.25 µM] (inactive)"],
  ["CC1(C)CC[C@]2(C(=O)N3CCCNCC3)CC[C@]3(C)C(=CC[C@@H]4[C@@]5(C)CCC(=O)C(C)(C)[C@@H]5CC[C@]43C)[C@H]2C1", "95.3% (inactive)"],
  ["C#C[C@]1(O)CC[C@H]2[C@@H]3CC=C4c5sc(C6CC6)nc5CC[C@]4(C)[C@H]3CC[C@@]21C", "68.8% (inactive)"],
  ["C#Cc1ccc(NC(=O)c2ccc(/C=C/C(=O)c3nccn3C)cc2)c(F)c1", "41.8% (inactive)"],
  ["O=c1cc(-c2ccccc2)nc2sc(-c3c[nH]c4ccc(F)cc34)nn12", "20.3% (inactive)"],
  ["COc1cc(C2=NN(C(C)=O)C(c3ccc(N4CCOCC4)cc3)C2)cc(OC)c1OC (stereo unspecified)", "84% (inactive)"]
]}

###

- System: HCC-2998 colon
- TEST NAME: NCI-60 one-dose screen, 48 h
- CONDITION: 10 µM unless noted
Compounds without any hit were thinned out: in the full panel of roughly 83,000, 20% have a hit. Active and inactive are the calls of the source. Rule for the calls: active = growth percent below 10; inactive = the rest.
Outcomes: T = active, F = inactive

{"columns": ["COMPOUND", "TGT", "QUALITATIVE LABEL"],
 "data": [
  ["O=C(c1cccc(F)c1)n1ccc2cc(NC(=S)Nc3cccnc3)ccc21", "HCC-2998 colon", "F"],
  ["CS(=O)(=O)c1nccc(-c2c(-c3ccc(F)c(OCc4ccc(F)cc4)c3)nc3sccn23)n1", "HCC-2998 colon", "T"],
  ["C[C@@H]1C[C@H]2C(=O)OCC(NC(=O)[C@H](Cc3cc(F)cc(F)c3)NC(=O)Nc3ccc(Cl)cc3F)C(=O)N3CCC[C@H]3C(=O)N3CCCC[C@H]3C(=O)N[C@@H](C)C(=O)N2C1 (stereo partly drawn)", "HCC-2998 colon", "F"],
  ["CS(=O)c1nccc(-c2c(-c3ccc(F)c(OCCc4ccc(F)cc4)c3)nc3sccn23)n1 (stereo not drawn)", "HCC-2998 colon", "F"],
  ["CCC(=O)Nc1ccc(-c2nc(-c3cccc(O)c3)c(-c3ccnc(Br)c3)[nH]2)cc1", "HCC-2998 colon", "F"],
  ["COc1ccc(-c2nc3cc(Cl)c(Cl)cc3n2CC(=O)N=Nc2c(O)[nH]c3ccccc23)cc1", "HCC-2998 colon", "F"],
  ["O=C(NNc1nc2cc(F)cc(F)c2n2cccc12)c1ccncn1", "HCC-2998 colon", "F"],
  ["CC1(C)CC[C@]2(C(=O)N3CCCNCC3)CC[C@]3(C)C(=CC[C@@H]4[C@@]5(C)CCC(=O)C(C)(C)[C@@H]5CC[C@]43C)[C@H]2C1", "HCC-2998 colon", "F"],
  ["IP(CCCSc1n(Cc2ccc3ccccc3c2)c(-c2ccccc2)c(-c2ccccc2)[n+]1Cc1ccc2ccccc2c1)(c1ccccc1)(c1ccccc1)c1ccccc1", "HCC-2998 colon", "F"],
  ["C/C(Cc1ccc(Cl)cc1)=C(/c1ccccc1)c1ccc(OCCN)cc1", "HCC-2998 colon", "F"],
  ["COc1ccc(/C=C/C(=O)c2nnn(-c3ccc(C(=O)O)cc3)c2C)cc1OC", "HCC-2998 colon", "F"],
  ["CC1=CC(=O)CC(C)(C)[C@@]1(O)/C=C/C(C)=C\\C(=O)O", "HCC-2998 colon", "T"],
  ["O=C(NNc1nc2cc(F)c(F)cc2n2cccc12)c1cccnn1", "HCC-2998 colon", "F"],
  ["COc1cc(C(=O)c2cc(C(C)=O)c3c4ccccc4ccn23)cc(OC)c1OC", "HCC-2998 colon", "F"],
  ["O=C1C[C@@H](c2ccccc2)Oc2c(Cc3ccccc3O)c(O)c(Cc3cc(Cc4cc(Cc5ccccc5O)ccc4O)ccc3O)c(O)c21", "HCC-2998 colon", "F"],
  ["CCOC(=O)c1c(NC(=O)c2cccc(C(F)(F)F)c2)sc2c(CN3CCN(C)CC3)c(O)ccc12", "HCC-2998 colon", "T"],
  ["CN(c1ccc(Br)cc1)S(=O)(=O)c1ccc(-c2cnc(C3CC3)o2)cc1", "HCC-2998 colon", "F"],
  ["CN1CCN(c2nc(-c3csc(-c4ccncc4)n3)cc3ccccc23)CC1", "HCC-2998 colon", "F"]
]}
